Target: xCT (system xc–, cystine-glutamate exchanger) (Rattus norvegicus)
Construct: with 4F2hc (Slc3a2)
Sequence (A0A8I6AB70 1-502): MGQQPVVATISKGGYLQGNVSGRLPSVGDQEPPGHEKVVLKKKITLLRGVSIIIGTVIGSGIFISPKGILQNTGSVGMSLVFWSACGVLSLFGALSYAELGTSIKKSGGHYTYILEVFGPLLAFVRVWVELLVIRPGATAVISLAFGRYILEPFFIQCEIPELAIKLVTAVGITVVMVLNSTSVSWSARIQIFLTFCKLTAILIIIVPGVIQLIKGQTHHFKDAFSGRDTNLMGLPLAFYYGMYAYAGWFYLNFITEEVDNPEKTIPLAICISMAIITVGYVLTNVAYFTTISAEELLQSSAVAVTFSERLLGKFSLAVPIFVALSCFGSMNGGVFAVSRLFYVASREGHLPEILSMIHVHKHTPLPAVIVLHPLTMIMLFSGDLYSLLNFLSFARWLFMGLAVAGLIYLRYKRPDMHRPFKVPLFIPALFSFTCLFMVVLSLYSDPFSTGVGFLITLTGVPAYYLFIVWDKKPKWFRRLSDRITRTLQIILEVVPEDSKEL
Test: inhibition of [3H]-L-glutamate uptake in Na+-free buffer, CHO-xCT cells, concentration-response
Property measured: pIC50
To interpret pIC50, take it as minus log10 of a concentration measured in moles per litre.

Lookup: Need pIC50, item "N[C@@H](CCS(=O)(=O)O)C(=O)O"
Found: 5.24

The measurements presented in this section are drawn from paper PMC8793334.
